# Test system: EKVX
# assayComment: NCI tumour cell line growth inhibition, 48 h
Activity calls are given as the source filed them. Rule as the data show it: active = GI50 up to about 1.1 µM and inactive = higher.
GI50: recorded values

Study these solved cases before continuing.
- molecule: "CN1Cc2c(ccc3c2OCO3)[C@@H]2[C@H](O)Cc3cc4c(cc3[C@@H]21)OCO4"
  GI50: "4.51 µM (inactive)"
- molecule: "Cc1cc(C)c(-c2no/c(=N\\S(=O)(=O)c3ccc(Cl)cc3)o2)c(C)c1"
  GI50: "> 100 µM (inactive)"
- molecule: "Cc1cccc(CC(Cc2ccc(C)cc2C(=O)O)C(=O)O)c1 (stereo not given)"
  GI50: "> 100 µM (inactive)"
- molecule: "COC1=CC(=O)c2c(cc3c(c2O)-c2c(OC)cc4cc5c(c(O)c4c2OC(=O)CC(C)(O)C3)C(=O)CC(C)(O)C5)C1=O (stereo not given)"
  GI50: "2.27 µM (inactive)"
- molecule: "COc1ccc(C2CC(c3cc(C)ccc3O)=NC(N)=N2)cc1 (stereo not given)"
  GI50: "> 100 µM (inactive)"

# input I would be grateful if you could share the reported GI50 for CC(CCOc1ccc2ccc(=O)oc2c1)C1=CC(=O)C(C)(C)O1 (stereo not given) .
# output 2.68 µM (inactive)

# input I would be grateful if you could share the reported GI50 for COc1ccc2c(c1)-c1[nH]c3ccccc3c1CC2 .
# output 10.1 µM (inactive)

# input I would be grateful if you could share the reported GI50 for O=C1C=CC(=O)c2cc(Sc3ccccc3)c(=O)ccc21 .
# output 18.3 µM (inactive)

# input I would be grateful if you could share the reported GI50 for O=C(O)C1=C(C(=O)Nc2ccc(NC(=O)C3=C(C(=O)O)C4C=CC3C4)cc2)C2C=CC1C2 .
# output > 100 µM (inactive)

# input I would be grateful if you could share the reported GI50 for CC(C)=CC(=O)N(C)C1C2CN3CCC(O2)C13 (stereo not given) .
# output > 100 µM (inactive)

###

# System: NCI-H23
# assayComment: NCI tumour cell line growth inhibition, 48 h
Activity calls are given as the source filed them. Cut-off read from the data, not from the text of the source: active = GI50 up to about 1.1 µM and inactive = higher.
Respond with a class label; see active, inactive

# example entries with known answers
- compound: "O=[N+]([O-])c1ccc(Oc2c(Cl)cc(S(=O)(=O)N/C(=N\\O)Nc3ccc(Cl)cc3)cc2Cl)c(Cl)c1"
  classification: "inactive"
- compound: "Cn1c(=O)c(-c2ccccc2)c(N=[N+]=[N-])c2ccccc21"
  classification: "inactive"
- compound: "COc1ccc(/C=C/C(=O)NCC(NC(=O)/C=C/c2ccc(OC)c(OC)c2)C(=O)O)cc1OC (stereo unspecified)"
  classification: "inactive"

Now for a further compound.
# input Status in this test for COc1cc2c(cc1O)CCN[C@@]21CS[C@H]2c3c(OC(C)=O)c(C)c4c(c3C(COC1=O)N1C2C2NC(Cc3cc(C)c(OC)c(O)c32)[C@@H]1O)OCO4 (stereo partly specified) ?
# output active

###

# Test system: A549
# assayComment: NCI tumour cell line growth inhibition, 48 h
Active and inactive are the calls of the source. No stated cut-off is given here; in the data, active = GI50 up to about 1.1 µM and inactive = higher.
GI50: recorded values

- molecule: "CSc1nc(SC)c2c(C(N)=S)n[nH]c2n1"
  GI50: "23 µM (inactive)"
- molecule: "O=C(O)C1=C(C(=O)Nc2ccc(NC(=O)C3=C(C(=O)O)C4C=CC3C4)cc2)C2C=CC1C2"
  GI50: "> 100 µM (inactive)"
- molecule: "COc1cc(/C=C2\\CC/C(=C\\c3cc(OC)c(O)c(OC)c3)C2=O)cc(OC)c1O"
  GI50: "3.19 µM (inactive)"

# input Record lookup: for A549, what GI50 belongs to COc1ccc(/C=C/C(=O)NCC(NC(=O)/C=C/c2ccc(OC)c(OC)c2)C(=O)O)cc1OC (stereo not drawn) ?
# output > 100 µM (inactive)

# input Record lookup: for A549, what GI50 belongs to CC12CC(c3ccccc3O1)C(C(=O)Nc1ccc(F)cc1)C(=O)N2 (stereo not drawn) ?
# output 91 µM (inactive)

Origin of the recorded values: ChEMBL document CHEMBL1201862
